Hello, the source for this data is ChEMBL document CHEMBL1142529, in case you need it.

Target: Quinolone resistance protein NorA (Staphylococcus aureus) (UniProt P0A0J7)
Sequence (whole entry): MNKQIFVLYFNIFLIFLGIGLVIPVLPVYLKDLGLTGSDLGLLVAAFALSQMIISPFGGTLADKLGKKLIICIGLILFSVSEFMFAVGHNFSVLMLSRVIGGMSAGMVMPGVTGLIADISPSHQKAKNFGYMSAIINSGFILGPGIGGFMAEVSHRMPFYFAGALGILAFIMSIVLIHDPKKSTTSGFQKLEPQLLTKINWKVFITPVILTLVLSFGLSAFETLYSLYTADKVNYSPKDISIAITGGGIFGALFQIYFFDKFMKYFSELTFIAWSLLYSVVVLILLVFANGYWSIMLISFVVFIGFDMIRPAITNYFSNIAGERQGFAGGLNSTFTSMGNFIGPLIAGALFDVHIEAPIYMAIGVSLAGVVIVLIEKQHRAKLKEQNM
Experiment: Inhibition of NorA efflux pump in Staphylococcus aureus 1199 assessed as fold reduction of ciprofloxacin MIC at 25 ug/ml
Catalogue of fold change (FC) values
MEASURED QUANTITY: fold change (FC)

INSERT INTO measurements (input_smiles, system, result) VALUES
  ('CC(C)CNC(=O)/C=C/C=C/c1ccc2c(c1)OCO2', 'Quinolone resistance protein NorA (Staphylococcus aureus) (UniProt P0A0J7)', 0),
  ('CCN(CC)C(=O)/C=C/C=C/c1ccc2c(c1)OCO2', 'Quinolone resistance protein NorA (Staphylococcus aureus) (UniProt P0A0J7)', 0),
  ('O=C(/C=C/C=C/c1ccc2c(c1)OCO2)Nc1cccc(CO)c1', 'Quinolone resistance protein NorA (Staphylococcus aureus) (UniProt P0A0J7)', 0),
  ('N#CCc1ccc(NC(=O)/C=C/C=C/c2ccc3c(c2)OCO3)cc1', 'Quinolone resistance protein NorA (Staphylococcus aureus) (UniProt P0A0J7)', 0),
  ('O=C(/C=C/C=C/c1ccc2c(c1)OCO2)Nc1ccc(C(=O)Nc2ccccc2)cc1', 'Quinolone resistance protein NorA (Staphylococcus aureus) (UniProt P0A0J7)', 0);
